# Tested Target: iNAP1
# Construct: gene rex; 6xHis N-terminal, E. coli BL21(DE3) pLys
# Method Description: sensor fluorescence titration, excitation […] nm, emission […] nm
# Assay type: binding
# Recorded Conditions: 22 °C, in vitro, pseudocytosol medium pH 7.5, 0.5 μM sensor
Endpoint Name: Kd (nM)
Report only the number, with the unit nM understood.

Task: Quick one: Kd for NC(=O)C1=CN([C@@H]2O[C@H](COP(=O)(O)OP(=O)(O)OC[C@H]3O[C@@H](n4cnc5c(N)ncnc54)[C@H](OP(=O)(O)O)[C@@H]3O)[C@@H](O)[C@H]2O)C=CC1 [NADPH] ?
Result: 300

src = paper PMC7320160
